Tested Target: Female germline-specific tumor suppressor gld-1 (Caenorhabditis elegans) (UniProt Q17339)
Sequence (Q17339 whole entry, looked up): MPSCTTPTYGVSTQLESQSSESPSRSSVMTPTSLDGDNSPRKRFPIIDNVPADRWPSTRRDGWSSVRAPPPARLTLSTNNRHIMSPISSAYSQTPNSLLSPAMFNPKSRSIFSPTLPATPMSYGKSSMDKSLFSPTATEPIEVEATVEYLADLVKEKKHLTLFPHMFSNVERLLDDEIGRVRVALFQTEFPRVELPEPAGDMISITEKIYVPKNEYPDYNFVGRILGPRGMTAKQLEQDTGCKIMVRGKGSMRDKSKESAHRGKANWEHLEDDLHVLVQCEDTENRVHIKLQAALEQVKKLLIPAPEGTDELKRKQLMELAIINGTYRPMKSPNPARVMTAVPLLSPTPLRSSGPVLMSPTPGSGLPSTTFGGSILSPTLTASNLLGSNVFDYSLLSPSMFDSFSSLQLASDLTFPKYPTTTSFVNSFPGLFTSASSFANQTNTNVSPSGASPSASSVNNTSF
Test: small molecules blocking C. elegans GLD-1 RNA recognition – biochemical, fluorescence polarization, primary screen (AID 2280);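 also: 0% = DMSO wells with GLD-1 and probe and 100% = wells lacking GLD-1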
Assay Context: purified GLD-1 + fluorescein TGE RNA, at 5.96 µM, hits give high values
In all, about 320,000 compounds went through this assay and about 1,400 (0.44%) were called active. The sample holds actives, similar compounds and a random draw of the others, so the mix is not that of the screen.
Measured Attribute: inhibition (%)
Numbers only; they are read as %.

The following compounds have reported results that may help.
compound="O=C(OCC1OC(Oc2ccc(O)cc2)C(O)C(O)C1O)c1ccccc1 (centres undefined)" tested_target="Female germline-specific tumor suppressor gld-1 (Caenorhabditis elegans) (UniProt Q17339)" measured_attribute=inhibition number=2.13
compound=CNC(=S)NNC(=O)c1cccn(Cc2ccccc2)c1=O tested_target="Female germline-specific tumor suppressor gld-1 (Caenorhabditis elegans) (UniProt Q17339)" measured_attribute=inhibition number=3.04
compound=C/C(=N\N=C(N)N)c1ccc(Cl)cc1 tested_target="Female germline-specific tumor suppressor gld-1 (Caenorhabditis elegans) (UniProt Q17339)" measured_attribute=inhibition number=-0.39
compound=COc1ccccc1CNC(=O)c1ccc(Cl)c(S(=O)(=O)N2CCCC2)c1 tested_target="Female germline-specific tumor suppressor gld-1 (Caenorhabditis elegans) (UniProt Q17339)" measured_attribute=inhibition number=0.54
compound=COc1cccc(NC(=S)N(CCc2c(C)[nH]c3ccccc23)Cc2ccco2)c1 tested_target="Female germline-specific tumor suppressor gld-1 (Caenorhabditis elegans) (UniProt Q17339)" measured_attribute=inhibition number=2.83

Q: // map COc1ccc2[nH]c(C)c(CCN(Cc3cccs3)C(=S)Nc3ccccc3OC)c2c1 to recorded inhibition (system: Female germline-specific tumor suppressor gld-1 (Caenorhabditis elegans) (UniProt Q17339))
Ans: 50

Q: What about CNC(=S)NNC(=O)c1oc2nc(-c3ccccc3)cc(-c3ccco3)c2c1N ?
Ans: 38.9

Q: Moving on to the next compound: O=C(OCC1O[C@@H](OC(=O)c2cc(O)c(O)c(O)c2)[C@@H](OC(=O)c2cc(O)c(O)c(O)c2)[C@@H](OC(=O)c2cc(O)c(O)c(O)c2)[C@@H]1OC(=O)c1cc(O)c(O)c(O)c1)c1cc(O)c(O)c(O)c1 (some centres undefined)
Ans: 34.6

Q: // query: CSc1ccc(S(=O)(=O)Nc2cccc(F)c2)cc1
Ans: 11.1

Q: Please answer likewise for Cc1[nH]c2ccccc2c1CCN(Cc1cccs1)C(=S)NC(C)(C)C
Ans: 5.63

Q: Similarly, COC(=O)c1sc(-c2ccc(C(C)(C)C)cc2)cc1NC(=O)/C=C/C(=O)O ?
Ans: -0.27

Q: Now consider CC[N+](C)(CC)CCC[n+]1c(-c2ccccc2)c2cc(N)ccc2c2ccc(N)cc21 .
Ans: 62.4

Q: Continue with CCC(C)[C@H](NC(=O)N1CCn2c1nc1ccccc12)C(=O)NCc1ccc(OC)cc1 (some centres undefined)
Ans: 12.5

Q: Now the same for CCCCC1=CC2=CC(=O)C(C)(OC(=O)CC)C(=O)C2=CN1CCCOC(C)C (centres undefined)
Ans: 22.9

----------
Tested Target: Female germline-specific tumor suppressor gld-1 (Caenorhabditis elegans)
Test: small molecules blocking C. elegans GLD-1 RNA recognition – biochemical, fluorescence polarization, primary screen (AID 2280);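 also: 0% = DMSO wells with GLD-1 and probe and 100% = wells lacking GLD-1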
Assay Context: purified GLD-1 + fluorescein TGE RNA, at 5.96 µM, hits give high values
Hit rate of the full screen: of about 320,000 compounds, about 1,400 (0.44%) were called active. What follows is part of a selection rich in actives, with near analogues and random picks from the rest.
Recorded inhibition for the following compounds
Please give a number only; it is taken to be in %.

Known results for compounds:
compound=COC(=O)C1=CN(Cc2ccc(OC)cc2)C=C(C(=O)OC)C1c1ccc(O)c(OC)c1 number=4.18
compound=CC/C(=N/Nc1ccccc1)c1cnnc(SC)n1 number=2.17
compound=N[C@@H](Cc1ccccc1)C(=O)N1CCOCC1 number=10.2

Q: I have this compound here, Cc1cc2ccccc2n1CCNC(=O)COc1ccc2ccccc2c1 , and I need its recorded inhibition.
Ans: 7.21

Q: Continue with Cc1cc2ccccc2n1CCC(=O)O
Ans: 50.2
